A set of molecules tested on δ opioid receptors (Rattus norvegicus, UniProt P33533), with measured pIC50:
Where a name gives a salt, the structure may show the parent alone.
pIC50 here: minus log base 10 of the concentration, concentration in moles per litre.

{"Molecule": "Cc1cc(O)cc(C)c1C[C@H](N)C(=O)N1CCN(Cc2ccccc2)CC1 [Example 15, dihydrochloride]", "Parameter measured": "pIC50", "Result": 7.83}
{"Molecule": "Cc1cc(O)cc(C)c1C[C@H](N)C(=O)NC(C)(C)CNC(=O)OCc1ccccc1 [Example 3, monohydrochloride]", "Parameter measured": "pIC50", "Result": 8.00}

Next molecule, please.
The value of pIC50 recorded for Cc1cc(O)cc(C)c1C[C@H](N)C(=O)NC(C)(C)CNC(=O)C#Cc1ccccc1 [Example 18, monohydrochloride] when tested on δ opioid receptors (Rattus norvegicus, UniProt P33533) reads 8.03

Data origin: patent US5389645A
